We begin with a simple list: items and their reported growth.
test system: TK-10 renal; test: NCI-60 one-dose screen, 48 h (100 = growth as untreated, 0 = no growth, -100 = all killed); conditions: 10 µM unless noted
Compounds without any hit were thinned out: in the full panel of roughly 83,000, 20% have a hit.
Just the number please, in %, no unit attached.

These recorded examples may help you get a feel for the data.
Nc1ncnc2c1c(-c1ccc(Oc3ccccc3)cc1)nn2CC1SSCC1O (stereo not given): 8.91
Cc1c2ccccc2nc2c1ccc1cccnc12: 96.1
COCC[C@H]1CCC/C=C/[C@@H]2C[C@H](O)C[C@H]2[C@H](O)/C=C/C(=O)O1: -38.5
CCn1cc(C2=C(c3cn(C)c4ncccc34)C(=O)NC2=O)c2cccnc21: 69.4
Cc1ccc(/C=C(\C#N)C(=O)Nc2ncc(Cc3cc(Cl)ccc3Cl)s2)o1: 44.1
CCC(CC)(N(CC(=O)O)CC(=O)O)C(CC)(CC)N(CC(=O)O)CC(=O)O: 103

[Q] Give the reported value of growth for this record: O=c1oc2c(cnc3ccccc32)cc1-c1cccs1
[A] 106

[Q] Give the reported value of growth for this record: C#CCOc1ccc2ncnc(Nc3cccc(NC(=O)CCl)c3)c2c1
[A] 73.4

[Q] Give the reported value of growth for this record: CCn1c2ccc(O)cc2c2c(C)c3c[n+](C(C)C)ccc3c(C)c21
[A] 105

[Q] Give the reported value of growth for this record: Cc1ccc(O)c(NC(=O)c2ccc(CNc3ccnc(C(F)(F)F)c3)cc2)c1
[A] 96.7

----------
test system: SF-268 CNS; experiment: NCI-60 one-dose screen, 48 h (100 = growth as untreated, 0 = no growth, -100 = all killed); conditions: 10 µM unless noted
About 83,000 compounds went through this panel and 20% of them were active in at least one assay; those are over-represented in the sample as a whole.
MEASURE NAME: growth (%)
Just the number please, in %, no unit attached.

COc1cccc(NC(=O)c2cccc(C3CCc4c(cc(OC)c(OC)c4OC)O3)c2)c1 (centres undefined): 91.2

[Q] Give the reported value of growth for this record: COCC[C@H]1CCC/C=C/[C@@H]2C[C@H](O)C[C@H]2[C@H](O)/C=C/C(=O)O1
[A] 12.6

[Q] Give the reported value of growth for this record: O=C1c2cc3c(cc2-c2c1c1ccc(Cl)cc1c(=O)n2C[C@H](O)CO)OCO3
[A] 4.7

[Q] Give the reported value of growth for this record: Cc1ccc(/C=C/C(=O)c2ccc(NC(=O)CSc3nc4c([nH]3)c(=O)n(C)c(=O)n4C)cc2)c(C)c1
[A] 46.2

[Q] Give the reported value of growth for this record: COc1ccc(Cc2nnc(Nc3nc4ccccc4s3)s2)cc1
[A] 103

----------
system: PC-3 prostate; experiment: NCI-60 one-dose screen, 48 h (100 = growth as untreated, 0 = no growth, -100 = all killed); settings: 10 µM unless noted
About 83,000 compounds went through this panel and 20% of them were active in at least one assay; those are over-represented in the sample as a whole.
We begin with a simple list: items and their reported growth.
Just the number please, in %, no unit attached.

NC(=S)N/N=C/c1cn(-c2ccccc2)nc1-c1cc2ccccc2oc1=O: 67.5

[Q] Give the reported value of growth for this record: Cc1ccc(-c2nc(C(Cl)Cl)nc3cc(C)nn23)cc1
[A] 44.9

[Q] Give the reported value of growth for this record: CC1COCC(C)N1C1=C(Cl)C(=O)c2ccccc2C1=O (stereo not given)
[A] 47.2

[Q] Give the reported value of growth for this record: COc1cc(/C=C/c2cc(/C=C/c3ccc(O)c(OC)c3)n(C(=O)Nc3ccc(F)cc3)n2)ccc1O
[A] 9.01

[Q] Give the reported value of growth for this record: N#CC(C#N)N=Nc1ccc(Cl)cc1Cl
[A] 78.7

[Q] Give the reported value of growth for this record: Cc1ccc(/C=C2\CN(C(=O)C(Cl)Cl)C/C(=C\c3ccc(C)cc3)C2=O)cc1
[A] -49.3

[Q] Give the reported value of growth for this record: COc1ccc(-c2nnc(SCC(=O)Nc3ccc(/C(C)=N\O)cc3)n2-c2ccccc2)cc1OC
[A] 110

[Q] Give the reported value of growth for this record: Oc1c(CN2CCCC2)cc(COCc2ccccc2)c2cccnc12
[A] 24.9

[Q] Give the reported value of growth for this record: Cc1c(Cl)cccc1C(=O)Nc1nc2c(s1)CN(C(=O)Nc1cccc(C(F)(F)F)c1)CC2
[A] 6.43

[Q] Give the reported value of growth for this record: COc1ccc(NC(=O)c2cccc(C3CCc4c(cc(OC)c(OC)c4OC)O3)c2)cc1 (stereo not given)
[A] 5.96
